Collected pKi values appear next to each entry.
# test.target: T1, human insulin receptor isoform B with C-terminal C9 tag (human, UniProt P06213 28-1382)
# T1 construct: membranes of stably transfected HEK293 cells; also called hIR-B; human IR-B
# assay.protocol: 125I-insulin competition SPA, hIR-B membranes, 0.1% BSA
pKi is a log-scale quantity: -log10 of the concentration expressed in molar.

>  <binder>
INS Analog 26 (other, single-chain insulin B-L2-A-L1-VHH fusion; also called Ex. 26) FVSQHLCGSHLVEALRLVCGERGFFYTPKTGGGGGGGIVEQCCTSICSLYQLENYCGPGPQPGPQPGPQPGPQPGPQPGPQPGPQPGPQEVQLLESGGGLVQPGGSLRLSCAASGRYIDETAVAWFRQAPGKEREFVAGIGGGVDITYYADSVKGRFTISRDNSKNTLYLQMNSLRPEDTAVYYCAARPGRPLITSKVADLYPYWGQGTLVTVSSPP

>  <pKi>
6.39

$$$$
>  <binder>
INS Analog 12 (other, single-chain insulin B-L2-A-L1-VHH fusion; also called Ex. 12) FVSQHLCGSHLVEALHLVCGERGFHYTPKTGGGGGGGIVEQCCHSICSLYQLENYCGPGPAPGPAPGPAPGPAPGPAPGPAPGPAPGPAEVQLLESGGGLVQPGGSLRLSCAASGRYIDETAVAWFRQAPGKEREFVAGIGGGVDITYYADSVKGRFTISRDNSKNTLYLQMNSLRPEDTAVYYCAARPGRPLITSKVADLYPYWGQGTLVTVSSPP

>  <pKi>
6.95

$$$$

Could you now consider this next binder?
Prompt: Fill in: pKi of INS Analog 7 (other, single-chain insulin B-L2-A-L1-VHH fusion; also called Ex. 7) FVSQHLCGSHLVEALYLVCGERGFFYTPKTGGGGGGGIVEQCCTSICSLYQLENYCGPGPAPGPAPGPAPGPAPGPAPGPAPGPAPGPAEVQLLESGGGLVQPGGSLRLSCAASGRYIDETAVAWFRQAPGKEREFVAGIGGGVDITYYADSVKGRFTISRDNSKNTLYLQMNSLRPEDTAVYYCAARPGRPLITSKVADLYPYWGQGTLVTVSSPP is ___
Completion: 6.92
